Values were extracted from ChEMBL document CHEMBL1140232.

System: Escherichia coli
Experimental protocol: Antibacterial activity against aminoglycoside-susceptible Escherichia coli ATCC 25922 after 12 to 18 hrs
Format: functional
// MIC lookup, one value per entry
Experimental endpoint: MIC (µg/mL)

>>> recorded_result("NC[C@@H]1O[C@H](O[C@H]2[C@@H](O)[C@H](O[C@@H]3[C@@H](O)[C@H](N)C[C@H](N)[C@H]3O[C@H]3O[C@H](CN)[C@@H](O)[C@H](O)[C@H]3N)O[C@@H]2CO)[C@H](N)[C@@H](O)[C@@H]1O")
4
>>> recorded_result("NC[C@@H]1O[C@H](O[C@H]2[C@@H](O)[C@H](O[C@@H]3[C@@H](O)[C@H](N)C[C@H](N)[C@H]3O[C@H]3O[C@H](CN)[C@@H](O)[C@H](O)[C@H]3N)O[C@@H]2CNC(=O)CCC(=O)O)[C@H](N)[C@@H](O)[C@@H]1O")
64
>>> recorded_result("CNCc1cn(C[C@H]2O[C@@H](O[C@@H]3[C@@H](O)[C@H](N)C[C@H](N)[C@H]3O[C@H]3O[C@H](CN)[C@@H](O)[C@H](O)[C@H]3N)[C@H](O)[C@@H]2O[C@H]2O[C@@H](CN)[C@@H](O)[C@H](O)[C@H]2N)nn1")
8
>>> recorded_result("NC[C@@H]1O[C@H](O[C@H]2[C@@H](O)[C@H](O[C@@H]3[C@@H](O)[C@H](N)C[C@H](N)[C@H]3O[C@H]3O[C@H](CN)[C@@H](O)[C@H](O)[C@H]3N)O[C@@H]2Cn2cc(CNC(=O)[C@@H]3CCCN3)nn2)[C@H](N)[C@@H](O)[C@@H]1O")
16
